Target sequence: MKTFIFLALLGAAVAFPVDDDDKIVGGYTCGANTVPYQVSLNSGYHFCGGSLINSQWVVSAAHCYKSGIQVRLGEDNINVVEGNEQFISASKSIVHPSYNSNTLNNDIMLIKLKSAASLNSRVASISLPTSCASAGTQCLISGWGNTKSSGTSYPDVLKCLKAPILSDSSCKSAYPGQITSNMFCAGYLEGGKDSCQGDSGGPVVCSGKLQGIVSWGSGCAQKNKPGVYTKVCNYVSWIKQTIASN
pIC50: −log10 of the molar value.
QUANTITY_NAME: pIC50

I: CC#Cc1ccc(-c2ccc(C(=O)NCC(C)C)cc2C(=O)O)c(C(=O)Nc2ccc(C(=N)N)cc2)c1 [substituted biphenyl derivative, 36i]
II: CC(C)CNC(=O)c1ccc(-c2ccc(C(O)CO)cc2C(=O)Nc2ccc(C(=N)N)cc2)c(C(=O)O)c1 (configuration not stated) [substituted biphenyl derivative, 36s]
Asked: Between I and II , whose recorded pIC50 is greater? Lab log: write the label of the selected item as the result.
Given back: I

a: CC(C)CNC(=O)c1ccc(-c2ccc(-c3ccncc3)cc2C(=O)Nc2ccc(C(=N)N)cc2)c(C(=O)O)c1 [substituted biphenyl derivative, 36x]
b: CC(C)CNC(=O)c1ccc(-c2ccc(-c3ccsc3CO)cc2C(=O)Nc2ccc(C(=N)N)cc2)c(C(=O)O)c1 [substituted biphenyl derivative, 36ai]
c: CCc1ccc(-c2ccc(C(=O)NCC(C)C)cc2C(=O)O)c(C(=O)Nc2ccc(C(=N)N)cc2)c1 [substituted biphenyl derivative, 36c]
Asked: Order the items by recorded pIC50; the first position goes to the largest value. List the labels in the requested order.
Given back: a, b, c

A: CC(C)CNC(=O)c1ccc(-c2ccc(-c3occc3CO)cc2C(=O)Nc2ccc(C(=N)N)cc2)c(C(=O)O)c1 [substituted biphenyl derivative, 36aq]
B: CC(C)CNC(=O)c1ccc(-c2ccc(-c3cccs3)cc2C(=O)Nc2ccc(C(=N)N)cc2)c(C(=O)O)c1 [substituted biphenyl derivative, 36z]
Asked: Could you determine which record has the numerically smaller pIC50? Candidates: A and B Lab log: write the label of the selected item as the result.
Given back: A

---

TARGET_ENTITY: UniProt P00760
Sequence (P00760 whole entry): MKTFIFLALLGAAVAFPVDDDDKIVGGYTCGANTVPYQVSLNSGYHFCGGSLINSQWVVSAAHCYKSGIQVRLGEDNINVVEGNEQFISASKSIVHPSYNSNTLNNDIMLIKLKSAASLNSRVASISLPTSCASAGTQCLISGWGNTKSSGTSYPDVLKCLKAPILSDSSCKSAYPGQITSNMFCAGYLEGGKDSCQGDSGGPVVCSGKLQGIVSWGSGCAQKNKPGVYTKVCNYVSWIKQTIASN
QUANTITY_NAME: IC50 (µM)

Worked set:
[[record]]
molecule = "CC(C)CNC(=O)c1ccc(-c2ccc(-c3cccnc3)cc2C(=O)Nc2ccc(C(=N)N)cc2)c(C(=O)O)c1 [substituted biphenyl derivative, 36y]"
recorded_value = 3.02

[[record]]
molecule = "CC(C)CNC(=O)c1ccc(-c2ccc(-c3nccs3)cc2C(=O)Nc2ccc(C(=N)N)cc2)c(C(=O)O)c1 [substituted biphenyl derivative, 36af]"
recorded_value = 1.47

[[record]]
molecule = "CC(C)CNC(=O)c1ccc(-c2ccc(-c3cscc3CN=[N+]=[N-])cc2C(=O)Nc2ccc(C(=N)N)cc2)c(C(=O)O)c1 [substituted biphenyl derivative, 36am]"
recorded_value = 1.18

[[record]]
molecule = "C=C(CO)c1ccc(-c2ccc(C(=O)NCC(C)C)cc2C(=O)O)c(C(=O)Nc2ccc(C(=N)N)cc2)c1 [substituted biphenyl derivative, 36n]"
recorded_value = 3.54


1: CC(C)CNC(=O)c1ccc(-c2ccc(-c3sccc3CO)cc2C(=O)Nc2ccc(C(=N)N)cc2)c(C(=O)O)c1 [substituted biphenyl derivative, 36aj]
2: CC(C)CNC(=O)c1ccc(-c2ccc(-c3cccn3C)cc2C(=O)Nc2ccc(C(=N)N)cc2)c(C(=O)O)c1 [substituted biphenyl derivative, 36ae]
Asked: Could you determine which record has the numerically smaller IC50? Candidates: 1 and 2 Lab log: write the label of the selected item as the result.
Given back: 2
